Below: a set of entries, each annotated with reported pIC50.
- Assayed system: CMV polymerase (Human cytomegalovirus, UniProt P08546)
- Construct: made in house; host or cells: recombinant baculovirus-infected SF-9 cells
- Sequence (P08546 whole entry): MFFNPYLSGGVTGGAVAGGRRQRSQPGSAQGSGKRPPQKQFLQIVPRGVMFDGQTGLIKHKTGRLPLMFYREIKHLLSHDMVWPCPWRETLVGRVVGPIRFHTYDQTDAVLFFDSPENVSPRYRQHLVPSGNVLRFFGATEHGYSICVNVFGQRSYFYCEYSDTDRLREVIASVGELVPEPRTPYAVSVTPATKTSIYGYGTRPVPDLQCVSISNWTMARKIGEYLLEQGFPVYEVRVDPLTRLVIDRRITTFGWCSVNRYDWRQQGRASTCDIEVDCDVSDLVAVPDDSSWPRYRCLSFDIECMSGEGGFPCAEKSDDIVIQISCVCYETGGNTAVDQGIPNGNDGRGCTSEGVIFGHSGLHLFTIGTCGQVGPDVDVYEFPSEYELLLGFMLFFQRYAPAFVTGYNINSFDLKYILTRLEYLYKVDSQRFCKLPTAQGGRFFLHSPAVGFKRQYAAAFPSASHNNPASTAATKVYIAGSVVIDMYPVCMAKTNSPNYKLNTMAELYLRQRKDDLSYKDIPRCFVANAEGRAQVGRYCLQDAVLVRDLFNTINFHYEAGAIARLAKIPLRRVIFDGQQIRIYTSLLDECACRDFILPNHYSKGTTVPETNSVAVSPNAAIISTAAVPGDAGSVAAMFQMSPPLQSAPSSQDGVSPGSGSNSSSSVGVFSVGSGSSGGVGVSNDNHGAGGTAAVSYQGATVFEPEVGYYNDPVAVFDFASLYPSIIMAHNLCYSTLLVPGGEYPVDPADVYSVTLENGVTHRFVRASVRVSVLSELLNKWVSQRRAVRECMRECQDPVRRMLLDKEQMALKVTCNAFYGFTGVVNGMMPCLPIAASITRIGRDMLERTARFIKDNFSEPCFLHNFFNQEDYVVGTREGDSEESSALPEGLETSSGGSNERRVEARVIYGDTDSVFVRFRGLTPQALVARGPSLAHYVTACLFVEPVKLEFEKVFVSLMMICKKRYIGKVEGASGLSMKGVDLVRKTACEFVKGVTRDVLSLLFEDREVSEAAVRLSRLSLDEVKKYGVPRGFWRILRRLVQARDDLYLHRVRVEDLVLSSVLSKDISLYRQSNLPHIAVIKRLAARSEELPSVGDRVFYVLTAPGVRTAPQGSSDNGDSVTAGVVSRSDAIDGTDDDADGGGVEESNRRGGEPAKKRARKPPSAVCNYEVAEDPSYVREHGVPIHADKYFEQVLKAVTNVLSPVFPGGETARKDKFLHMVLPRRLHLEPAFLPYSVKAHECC
- Assay method text: modified version of the HCMV polymerase assay (100% DMSO dilution, DTT, different enzyme lot)
- Type: biochemical
- Assay conditions: Polymerase CMV; Table 7; read-out: Antiviral Selective Polymerase IC50 Values - IC50
In simple prose, pIC50 is minus the logarithm base ten of a concentration in moles per litre.

INSERT INTO measurements (molecule, meas_value) VALUES
  ('Cc1ccc2c(Cl)cc(C(=O)NCCSc3ccccc3)c(O)c2n1 [drawing 127]', 4.37);

Data request, read-out pIC50, for COc1ccc(CCc2ccc3ccc(C(=O)NCC(O)c4ccccc4)c(O)c3n2)cc1 (stereo not drawn) [drawing 129]
4.88
